// data source = paper PMC10819458

- assaySummary: Lung-tissue pharmacokinetics of PG–OJ components in tumor-bearing mice (UPLC–MS/MS)
- Format: in vivo, BALB/c nude male mice
- cond: male, BALB/c nude, mouse, in vivo, po; lung tissue, A549 tumor-bearing mice, intragastric PG–OJ extract 10.2 g/kg (6.8 g/kg elsewhere in the source), mean ± SD, n = 6; read-out: Tmax (converted)
resultType: Tmax (min)
Output spec: scalar in min, unitless text.

Record CC(C)=CCC[C@](C)(O)[C@H]1CC[C@]2(C)[C@@H]1[C@H](O)C[C@@H]1[C@@]3(C)CC[C@H](O)C(C)(C)[C@@H]3[C@@H](O[C@@H]3O[C@H](CO)[C@@H](O)[C@H](O)[C@H]3O)C[C@]12C [Ginsenoside Rh1] , field Tmax: 12.5

----------
- assaySummary: Lung-tissue pharmacokinetics of PG–OJ components in tumor-bearing mice (UPLC–MS/MS)
- Format: in vivo, BALB/c nude male mice
- cond: lung tissue, A549 tumor-bearing mice, intragastric PG–OJ extract 10.2 g/kg (6.8 g/kg elsewhere in the source), mean ± SD, n = 6
resultType: AUC(0–∞)

Some solved entries appear below for comparison.
compound CC(C)=CC/C=C(\C)[C@H]1CC[C@]2(C)[C@@H]1[C@H](O)C[C@@H]1[C@@]3(C)CC[C@H](O[C@@H]4O[C@H](CO)[C@@H](O)[C@H](O)[C@H]4O[C@@H]4O[C@H](CO)[C@@H](O)[C@H](O)[C@H]4O)C(C)(C)[C@@H]3CC[C@]12C [Ginsenoside Rg5] , AUC(0–∞) observed: 1,372,202.28 ± 48,963.33 ng/g·min

get_value(item= CC(C)=CCC[C@](C)(O[C@@H]1O[C@H](CO[C@@H]2OC[C@@H](O)[C@H](O)[C@H]2O)[C@@H](O)[C@H](O)[C@H]1O)[C@H]1CC[C@]2(C)[C@@H]1[C@H](O)C[C@@H]1[C@@]3(C)CC[C@H](O[C@@H]4O[C@H](CO)[C@@H](O)[C@H](O)[C@H]4O[C@@H]4O[C@H](CO)[C@@H](O)[C@H](O)[C@H]4O)C(C)(C)[C@@H]3CC[C@]12C [Ginsenoside Rb3] , readout=AUC(0–∞)) returns 16,689.44 ± 2585.97 ng/g·min

Query compound follows.
Reported AUC(0–∞) ( CC(C)=CCC[C@](C)(O[C@@H]1O[C@H](CO[C@@H]2O[C@@H](CO)[C@H](O)[C@H]2O)[C@@H](O)[C@H](O)[C@H]1O)[C@H]1CC[C@]2(C)[C@@H]1[C@H](O)C[C@@H]1[C@@]3(C)CC[C@H](O[C@@H]4O[C@H](CO)[C@@H](O)[C@H](O)[C@H]4O[C@@H]4O[C@H](CO)[C@@H](O)[C@H](O)[C@H]4O)C(C)(C)[C@@H]3CC[C@]12C [Ginsenoside Rc] ) = 25,129.88 ± 1611.92 ng/g·min

----------
- assaySummary: Lung-tissue pharmacokinetics of PG–OJ components in tumor-bearing mice (UPLC–MS/MS)
- Format: in vivo, BALB/c nude male mice
- cond: male, BALB/c nude, mouse, in vivo, po, Tmax
- Protocol: This study employed Ultra-Performance Liquid Chromatography–Mass Spectrometry (UPLC–MS/MS) to examine the pharmacokinetic properties of 20 bioactive components in a cell-derived xenograft (CDX) model following oral administration of a 10.2 g/kg PG–OJ extract. Healthy BALB/c nude male mice (weight: 18–21 g) were purchased from Beijing Huafukang Biotechnology Co., Ltd. (Beijing, China, License Number: SCXK (Jing) 2021-0006). […] The tumor diameter was measured daily using a caliper. […]
resultType: Tmax (min)
Numbers only here, please. The scale is min.

Here's what some known entries look like.
Lab note: CC(C)=CCC[C@](C)(O)[C@H]1CC[C@]2(C)[C@@H]1[C@H](O)C[C@@H]1[C@@]3(C)CC[C@H](O)C(C)(C)[C@@H]3[C@@H](O[C@@H]3O[C@H](CO)[C@@H](O)[C@H](O)[C@H]3O[C@@H]3O[C@H](CO)[C@@H](O)[C@H](O)[C@H]3O)C[C@]12C [Ginsenoside Rf] gave Tmax of 15

Memo: CC(C)=CCC[C@](C)(O[C@@H]1O[C@H](CO)[C@@H](O)[C@H](O)[C@H]1O)[C@H]1CC[C@]2(C)[C@@H]1[C@H](O)C[C@@H]1[C@@]3(C)CC[C@H](O)C(C)(C)[C@@H]3[C@@H](O)C[C@]12C [Ginsenoside F1] , reported Tmax: 240

// field: Tmax; key: CC(C)=CCC[C@](C)(O[C@@H]1O[C@H](CO)[C@@H](O)[C@H](O)[C@H]1O)[C@H]1CC[C@]2(C)[C@@H]1[C@H](O)C[C@@H]1[C@@]3(C)CC[C@H](O[C@@H]4O[C@H](CO)[C@@H](O)[C@H](O)[C@H]4O)C(C)(C)[C@@H]3CC[C@]12C [Ginsenoside F2] ; value = 60

Could you now look at the following molecule, please?
The measured Tmax associated with CC(C)=CCC[C@](C)(O)[C@H]1CC[C@]2(C)[C@@H]1[C@H](O)C[C@@H]1[C@@]3(C)CC[C@H](O)C(C)(C)[C@@H]3[C@@H](O[C@@H]3O[C@H](CO)[C@@H](O)[C@H](O)[C@H]3O[C@@H]3O[C@@H](C)[C@H](O)[C@@H](O)[C@H]3O)C[C@]12C [Ginsenoside Rg2] reads 15

----------
- assaySummary: Lung-tissue pharmacokinetics of PG–OJ components in tumor-bearing mice (UPLC–MS/MS)
- Assay type: in vivo, BALB/c nude male mice
- cond: male, BALB/c nude, mouse, lung tissue, po, 10.2 g/kg, lung tissue, oral PG–OJ extract; read-out: time to reach peak concentration
- Procedure: This study employed Ultra-Performance Liquid Chromatography–Mass Spectrometry (UPLC–MS/MS) to examine the pharmacokinetic properties of 20 bioactive components in a cell-derived xenograft (CDX) model following oral administration of a 10.2 g/kg PG–OJ extract. Healthy BALB/c nude male mice (weight: 18–21 g) were purchased from Beijing Huafukang Biotechnology Co., Ltd. (Beijing, China, License Number: SCXK (Jing) 2021-0006). […] The tumor diameter was measured daily using a caliper. […]
# maps each entry to its Tmax
Please reply with the bare figure in h and do not write the unit itself.

A selection of reference data follows.
Noted for CC(C)=CC/C=C(\C)[C@H]1CC[C@]2(C)[C@@H]1[C@H](O)C[C@@H]1[C@@]3(C)CC[C@H](O[C@@H]4O[C@H](CO)[C@@H](O)[C@H](O)[C@H]4O[C@@H]4O[C@H](CO)[C@@H](O)[C@H](O)[C@H]4O)C(C)(C)[C@@H]3CC[C@]12C [Ginsenoside Rg5] : its Tmax reads 12

In plain terms, CC(C)=CCC[C@](C)(O[C@@H]1O[C@H](CO[C@@H]2O[C@@H](CO)[C@H](O)[C@H]2O)[C@@H](O)[C@H](O)[C@H]1O)[C@H]1CC[C@]2(C)[C@@H]1[C@H](O)C[C@@H]1[C@@]3(C)CC[C@H](O[C@@H]4O[C@H](CO)[C@@H](O)[C@H](O)[C@H]4O[C@@H]4O[C@H](CO)[C@@H](O)[C@H](O)[C@H]4O)C(C)(C)[C@@H]3CC[C@]12C [Ginsenoside Rc] has a documented Tmax of 12

Now consider the entry below.
The recorded Tmax for CC(C)=CCC[C@](C)(O[C@@H]1O[C@H](CO[C@@H]2O[C@H](CO)[C@@H](O)[C@H](O)[C@H]2O)[C@@H](O)[C@H](O)[C@H]1O)[C@H]1CC[C@]2(C)[C@@H]1[C@H](O)C[C@@H]1[C@@]3(C)CC[C@H](O[C@@H]4O[C@H](CO)[C@@H](O)[C@H](O)[C@H]4O[C@@H]4O[C@H](CO)[C@@H](O)[C@H](O)[C@H]4O)C(C)(C)[C@@H]3CC[C@]12C [Ginsenoside Rb1] is 12

----------
- assaySummary: Lung-tissue pharmacokinetics of PG–OJ components in tumor-bearing mice (UPLC–MS/MS)
- Assay type: in vivo, BALB/c nude male mice
- cond: lung tissue, A549 tumor-bearing mice, intragastric PG–OJ extract 10.2 g/kg (6.8 g/kg elsewhere in the source), mean ± SD, n = 6
Recorded AUC(0–t) values for a group of compounds are listed next.

Reported AUC(0–t) ( CC(C)=CCC[C@](C)(O[C@@H]1O[C@H](CO[C@@H]2O[C@H](CO)[C@@H](O)[C@H](O)[C@H]2O)[C@@H](O)[C@H](O)[C@H]1O)[C@H]1CC[C@]2(C)[C@@H]1[C@H](O)C[C@@H]1[C@@]3(C)CC[C@H](O[C@@H]4O[C@H](CO)[C@@H](O)[C@H](O)[C@H]4O[C@@H]4O[C@H](CO)[C@@H](O)[C@H](O)[C@H]4O)C(C)(C)[C@@H]3CC[C@]12C [Ginsenoside Rb1] ) = 227,245.91 ± 5460.47 ng/g·min

Quick note, AUC(0–t) for CC(C)=CC/C=C(\C)[C@H]1CC[C@]2(C)[C@@H]1[C@H](O)C[C@@H]1[C@@]3(C)CC[C@H](O[C@@H]4O[C@H](CO)[C@@H](O)[C@H](O)[C@H]4O[C@@H]4O[C@H](CO)[C@@H](O)[C@H](O)[C@H]4O)C(C)(C)[C@@H]3CC[C@]12C [Ginsenoside Rg5] landed at 1,342,117.43 ± 45,675.73 ng/g·min

The value of AUC(0–t) measured for the compound CC(C)=CCC[C@](C)(O[C@@H]1O[C@H](CO[C@@H]2O[C@@H](CO)[C@H](O)[C@H]2O)[C@@H](O)[C@H](O)[C@H]1O)[C@H]1CC[C@]2(C)[C@@H]1[C@H](O)C[C@@H]1[C@@]3(C)CC[C@H](O[C@@H]4O[C@H](CO)[C@@H](O)[C@H](O)[C@H]4O[C@@H]4O[C@H](CO)[C@@H](O)[C@H](O)[C@H]4O)C(C)(C)[C@@H]3CC[C@]12C [Ginsenoside Rc] turned out to be 23,180.66 ± 703.80 ng/g·min
